Where do these numbers come from? They come from PubChem BioAssay AID720708.

Target: Rap guanine nucleotide exchange factor 4 (Homo sapiens)
Experiment: qHTS for Antagonist of cAMP-regulated guanine nucleotide exchange factor 2 (EPAC2): primary screen; also: nearly all actives have a fitted effect of over 45% in size
Conditions: EPAC2 GEF exchange of Rap1B-BODIPY-GDP, fluorescence; series mostly up to 114 µM
Screen size: about 360,000 compounds; about 660 (0.18%) were called active. Not shown: some 2% with an inconclusive outcome. Calls follow the shape of the dose curve; as a rule, active = well fitted inhibition curve with a large enough effect; inconclusive = small, poorly fitted or top-dose-only effect; inactive = no such curve, though single readings can be large or run the other way. What follows is part of a selection rich in actives, with near analogues and random picks from the rest.
Give one outcome, nothing more. List: active, inactive

query: Answer briefly: the call reported for C=CCSC(CC)(CC)C(N)=O in this assay.
result: inactive

query: Outcome? CO[C@@H]1CN(C)C(=O)c2cc(NC(=O)C3CC3)ccc2OC[C@H](C)N(C(=O)CN2CCOCC2)C[C@@H]1C
result: inactive

query: GET /call?item= CCOC(=O)c1cc(S(=O)(=O)NCCc2ccc(OC)c(OC)c2)cn1C returns the recorded outcome of this test.
result: inactive

query: Short answer needed: outcome of this test for CCN1CC=C2C(C#N)=C(N)C(C#N)(C#N)[C@H](c3ccoc3)[C@H]2C1 ?
result: inactive

query: Hi, do you know how CC(=O)CSc1nc(CCc2ccccc2)c(C#N)c(=O)[nH]1 came out in this test?
result: inactive

query: Called result for CC(=O)NCCC(=O)Nc1nc(C)c(Cc2ccc3c(c2)OCO3)s1
result: inactive

query: Each compound tested received a call. Report the one for Cc1ccc(C(=O)N[C@H](C(=O)N2CCN(c3ncccn3)CC2)C(C)C)cc1 .
result: inactive

query: What was the test verdict on C[C@H](CO)N1C[C@H](C)[C@@H](CN(C)C(=O)c2cnccn2)Oc2ncc(Br)cc2C1=O ?
result: inactive

query: Name the outcome recorded for N#Cc1c(-c2ccccc2)nc(SCc2cccc(C(F)(F)F)c2)[nH]c1=O in the assay.
result: active

query: Per the records of this test, what outcome belongs to CC(C)(C)Cc1c(C2CCCCC2)nc2ccc(Br)cn12 ?
result: inactive
